- Test system: Saccharomyces cerevisiae
- assay.remarks: protein stability index of tFT-peptide fusion (C-terminal peptide) (PSI (0-1 scale)); higher = more stable (slower turnover)
- assay.setup: genetic background: wild type; temperature: 30 C
# Lookup of reported protein stability index keyed by entry
Quick one: just the number, no unit, thanks!

Below: 3 sequences and their reported protein stability index.
Q. What protein stability index value was documented for this sequence, KPDSTAVRNEDE [YNR065C C-terminal 12 aa] ?
A. 0.66

Q. What protein stability index value was documented for this sequence, YLIKNPGYPIVF [OST6 C-terminal 12 aa] ?
A. 0.636

Q. What protein stability index value was documented for this sequence, IPAKKTKISLDY [ELP4 C-terminal 12 aa] ?
A. 0.677

Next:
Q. What protein stability index value was documented for this sequence, EKQSSTASEKAA [THI7 C-terminal 12 aa] ?
A. 0.704

Q. What protein stability index value was documented for this sequence, PMIKRQCEIIQF [TIP41 C-terminal 12 aa] ?
A. 0.676

Q. What protein stability index value was documented for this sequence, SLEKLEMSKYGL [YKL033W-A C-terminal 12 aa] ?
A. 0.669
